Taken from patent US5424426A.

- target desc: HIV protease (HIV-1) (Human immunodeficiency virus type 1 group M subtype B)
- Construct: purified HIV protease was incubated with synthetic peptide
- assay procedure: HIV-specific protease enzyme test (RP-HPLC analysis of synthetic peptide cleavage)
- condition parameters: purified HIV protease, synthetic Gag cleavage-site peptide
Where a name gives a salt, the structure may show the parent alone.

molecule	IC50
CC[C@H](C)[C@H](NC(=O)[C@H](Cc1ccccc1)C[C@H](O)[C@H](CC1CCCCC1)NC(=O)[C@@H](NC(=O)OC(C)(C)C)C1SCCS1)C(=O)Nc1ccccn1 [Example 3]	13 to 80 nM
CC[C@H](C)[C@H](NC(=O)[C@@H](Cc1ccccc1)C[C@H](O)[C@H](CC1CCCCC1)NC(=O)[C@@H](NC(=O)OC(C)(C)C)C1SCCS1)C(=O)Nc1ccccn1 [Example 4]	16 to 80 nM
CC[C@H](C)[C@H](NC(=O)C(C[C@H](O)[C@H](CC1CCCCC1)NC(=O)[C@@H](N)C1SCCS1)C(C)C)C(=O)Nc1ccccn1 (stereo partly shown) [Example 2, dihydrochloride]	1.3 to 9 nM
C=CCC(C[C@H](O)[C@H](CC1CCCCC1)NC(=O)[C@@H](NC(=O)OC(C)(C)C)C1SCCS1)C(=O)N[C@H](C(=O)Nc1ccccn1)[C@@H](C)CC (stereo partly shown) [Example 5]	1.4 to 9 nM
